Tested on: Plasmodium berghei
Experiment: Screen against P. berghei liver stage (PbLuc), transformed with Luciferase, at 2uM
Type: functional, HepG2
Settings: tested at 2 uM
Screen size: about 68,000 compounds; about 2,700 (4%) showed an effect of 50% or more. The list comes from a sample in which strong results are over-represented; it also holds close analogues and randomly drawn compounds.
Recorded metric: INHIBITION (%)
One number for each entry, in %.

1) Cc1cc(C)nc(C2CCN(c3ccncn3)C2)n1 (stereo unspecified)
80.06

Parameter requested: INHIBITION. Apply to each item below.
1. CCCS(=O)(=O)N1CCC2(CCCN(Cc3cccc(F)c3F)C2=O)C1 (stereo unspecified)
2. O=S1(=O)C[C@@H]2[C@H](C1)N(Cc1ccc3ccccc3c1)CCN2CC1CC1
3. COc1cc(CN(C(=O)Nc2cccnc2OC)C2CC2)ccc1O
4. O=S1(=O)NCC2(CCCN(Cc3ccccn3)C2)Oc2ncccc21 (stereo unspecified)
5. O=C(NC(c1ccc(Cl)cc1)c1cccnc1)C1CC1 (stereo unspecified)
6. O=C1[C@@H]2CCN(Cc3ccncc3)C[C@@H]2OCCN1c1ccccc1
7. CCc1cc(CN2CCCCC2c2ccc(F)cc2)on1 (stereo unspecified)
8. COc1ccc(C2CN(c3cc(C)ncn3)CCN2C(C)=O)cc1 (stereo unspecified)

Solution:
1: 50.59; 2: 20.91; 3: -34.31; 4: -30.35; 5: -58.01; 6: 2.71; 7: -19.3; 8: -28.43

Parameter requested: INHIBITION. Apply to each item below.
1. CN(C)S(=O)(=O)N1CCC2(CCCN(Cc3ccc(F)cc3)C2=O)C1 (stereo unspecified)
2. Cc1ccc(CN2CC[C@H]3O[C@@H](C(=O)N4CCCO4)CC[C@H]32)s1

Solution:
1. -37.84
2. -25.79
